Reported PM (%) dosing recommendation values are given for each entry in this list.
System: CYP2D6
Test Settings: CYP2D6 poor metabolizers; percent of usual dose

>  <Compound>
Fc1ccc([C@@H]2CCNC[C@H]2COc2ccc3c(c2)OCO3)cc1 [paroxetine]

>  <PM (%) dosing recommendation>
66

$$$$
>  <Compound>
COc1ccc(C(CN(C)C)C2(O)CCCCC2)cc1 (stereo not shown) [venlafaxine]

>  <PM (%) dosing recommendation>
68

$$$$
>  <Compound>
O=C1CCc2ccc(OCCCCN3CCN(c4cccc(Cl)c4Cl)CC3)cc2N1 [aripiprazole]

>  <PM (%) dosing recommendation>
70

$$$$
>  <Compound>
OCCN1CCN(CCCN2c3ccccc3Sc3ccc(Cl)cc32)CC1 [perphenazine]

>  <PM (%) dosing recommendation>
31

$$$$
